Tested on: intracellular chloride ([Cl-]i) of primary cortical neurons
Procedure Details: Secondary screen: Clomeleon chloride imaging in cultured primary cortical neurons
Type: cell-based, mouse
Experimental Setup: starting value before the arrow
Quick reference: Chloride [Cl—]i, value left of '=>' of the listed items.
Endpoint Name: Chloride [Cl—]i, value left of '=>' (mM)

>  <Molecule>
CC(O)CCC(=O)c1ccoc1 (centres unmarked)

>  <Endpoint Name>
Chloride [Cl—]i, value left of '=>'

>  <Experimental Value>
74

$$$$
>  <Molecule>
N=C1N=CN=C2C([C@@H]3O[C@H](CO)[C@@H](O)[C@H]3O)=CN=C12

>  <Endpoint Name>
Chloride [Cl—]i, value left of '=>'

>  <Experimental Value>
82

$$$$
>  <Molecule>
COc1cc2c3c(c4ccc(OC)c(OC)c4c2cc1OC)CN1CCC[C@H]1C3

>  <Endpoint Name>
Chloride [Cl—]i, value left of '=>'

>  <Experimental Value>
75

$$$$
>  <Molecule>
C[C@@]12C(=O)OC(=O)[C@]1(C)[C@H]1CC[C@@H]2O1

>  <Endpoint Name>
Chloride [Cl—]i, value left of '=>'

>  <Experimental Value>
68

$$$$
>  <Molecule>
Cc1ccc(NC(=O)c2cccc([N+](=O)[O-])c2O)c(C)c1

>  <Endpoint Name>
Chloride [Cl—]i, value left of '=>'

>  <Experimental Value>
74

$$$$

----------
Quick reference: Chloride [Cl—]i, value left of '=>' of the listed items.
Tested on: intracellular chloride ([Cl-]i) of primary cortical neurons
Procedure Details: Secondary screen: Clomeleon chloride imaging in cultured primary cortical neurons
Type: cell-based, mouse
Experimental Setup: starting value before the arrow
Endpoint Name: Chloride [Cl—]i, value left of '=>'

>  <Compound>
CC(=O)Nc1ccc(-c2nc3ccccc3s2)cc1

>  <Tested System>
intracellular chloride ([Cl-]i) of primary cortical neurons

>  <Experimental Value>
74 mM

$$$$
>  <Compound>
CC1(C)CCC[C@]2(C)C3=C(CC[C@@H]12)C(=O)OC3

>  <Tested System>
intracellular chloride ([Cl-]i) of primary cortical neurons

>  <Experimental Value>
75 mM

$$$$
>  <Compound>
COc1ccc(C[C@H]2NC[C@H](O)[C@H]2OC(C)=O)cc1

>  <Tested System>
intracellular chloride ([Cl-]i) of primary cortical neurons

>  <Experimental Value>
75 mM

$$$$
>  <Compound>
CC(=O)C1CCCC(=O)/C=C/C(=O)O1 (centres unmarked)

>  <Tested System>
intracellular chloride ([Cl-]i) of primary cortical neurons

>  <Experimental Value>
68 mM

$$$$
>  <Compound>
Cc1cc(-c2nc3ccccc3s2)ccc1N

>  <Tested System>
intracellular chloride ([Cl-]i) of primary cortical neurons

>  <Experimental Value>
82 mM

$$$$
